Tested on: CCRF-CEM
protocol.description: NCI tumour cell line growth inhibition, 48 h
Active and inactive are the calls of the source. Cut-off read from the data, not from the text of the source: active = GI50 up to about 1.1 µM and inactive = higher.
measurement.kind: GI50

> print(dat)
                                    compound               result
 1               COc1ccc(/C=N/N=C(\N)NO)cc1F   33.7 µM (inactive)
 2  CCC(/C(=N/NC(=O)C[N+](C)(C)C)c1ccccc1)C1OC(=O)c2ccccc21 (stereo not given)  > 100 µM (inactive)
 3        O=C(NCCc1ccccc1)c1c(O)nc2ccccc2c1O  > 100 µM (inactive)
 4  c1ccc2c3nc(C4CCCC4)nc-3c(NC3CCCC3)[nH]c2c1   5.89 µM (inactive)
 5  O=c1nc(NC(c2ccccc2)(c2ccccc2)c2ccccc2)ccn1CCNCCn1ccc(NC(c2ccccc2)(c2ccccc2)c2ccccc2)nc1=O   5.96 µM (inactive)
 6              O=C(NNC(=O)c1ccccc1O)c1ccco1   31.3 µM (inactive)
 7        O=C(O)CCCCCOc1cccnc1/C=N/NC1=NCCN1  > 100 µM (inactive)
 8  O=P(c1ccccc1)(c1ccccc1)C1CC=C2CCCCCC2C1 (stereo not given)   23.6 µM (inactive)
 9  CC1=C(/C=C/C(C)=C/C=C/C(C)=C/C=C/C=C(C)/C=C/C=C(C)/C=C/C2=C(C)C(=O)C(O)CC2(C)C)C(C)(C)CC(O)C1=O (stereo not given)  > 100 µM (inactive)
10  COC(=O)C1=CC(=O)OC1(OO)c1ccccc1 (stereo not given)   18.7 µM (inactive)

Ref: ChEMBL document CHEMBL1201862
